Counter-ions that a name gives are not always drawn.
READOUT: IC50

Data request: For the record N#Cc1ccnc(Nc2cc(C3CC3)cc(-c3ccc4c(c3)ncn4CCCO)n2)c1 [Example 121, hydrochloride] , what value of IC50 is listed for Syk tyrosine kinase (Homo sapiens, UniProt P43405)?
Data returned: 50 to 500 nM

Data request: For the record N#Cc1ccnc(Nc2cc(C3CC3)cc(-c3ccc(N4CCC(=O)CC4)nc3)n2)c1 [Example 4, hydrochloride] , what value of IC50 is listed for Syk tyrosine kinase (Homo sapiens, UniProt P43405)?
Data returned: 5 to 50 nM

Data request: For the record Cn1cc(-c2cncc(-c3cc(C4CC4)cc(Nc4cc(C#N)ccn4)n3)c2)cn1 [Example 114, hydrochloride] , what value of IC50 is listed for Syk tyrosine kinase (Homo sapiens, UniProt P43405)?
Data returned: 50 to 500 nM

Data request: For the record N#Cc1ccnc(Nc2cc(C3CC3)cc(-c3cncc(CN4CCCN(C(N)=O)CC4)c3)n2)c1 [Example 75, hydrochloride] , what value of IC50 is listed for Syk tyrosine kinase (Homo sapiens, UniProt P43405)?
Data returned: 5 to 50 nM

Data request: For the record N#Cc1ccnc(Nc2cc(C3CC3)cc(-c3cncc(N4CCCN(C(N)=O)CC4)c3)n2)c1 [Example 69, hydrochloride] , what value of IC50 is listed for Syk tyrosine kinase (Homo sapiens, UniProt P43405)?
Data returned: 5 to 50 nM

Data request: For the record N#Cc1ccnc(Nc2cc(C3CC3)cc(-c3cncc(NCCN)c3)n2)c1 [Example 90, hydrochloride] , what value of IC50 is listed for Syk tyrosine kinase (Homo sapiens, UniProt P43405)?
Data returned: < 5 nM

Data request: For the record N#Cc1ccnc(Nc2cc(C3CC3)cc(-c3cncc(N[C@@H]4CCNC4)c3)n2)c1 [Example 88, hydrochloride] , what value of IC50 is listed for Syk tyrosine kinase (Homo sapiens, UniProt P43405)?
Data returned: < 5 nM

Data request: For the record N#Cc1ccnc(Nc2cc(C3CC3)cc(-c3ccc4c(c3)ncn4C3CC3)n2)c1 [Example 150, hydrochloride] , what value of IC50 is listed for Syk tyrosine kinase (Homo sapiens, UniProt P43405)?
Data returned: 50 to 500 nM

Data request: For the record CNC(=O)CN1CCN(c2ccc(-c3cc(C4CC4)cc(Nc4cc(C#N)ccn4)n3)cn2)CC1 [Example 63, hydrochloride] , what value of IC50 is listed for Syk tyrosine kinase (Homo sapiens, UniProt P43405)?
Data returned: 50 to 500 nM

Data request: For the record N#Cc1ccnc(Nc2cc(C3CC3)cc(-c3ccc(N4CCOCC4)nc3)n2)c1 [Example 1, hydrochloride] , what value of IC50 is listed for Syk tyrosine kinase (Homo sapiens, UniProt P43405)?
Data returned: 5 to 50 nM

Data request: For the record N#Cc1ccnc(Nc2cc(C3CC3)cc(-c3ccc4ncn(C5CCNCC5)c4c3)n2)c1 [Example 173, hydrochloride] , what value of IC50 is listed for Syk tyrosine kinase (Homo sapiens, UniProt P43405)?
Data returned: < 5 nM

Data request: For the record N#Cc1ccnc(Nc2cc(C3CC3)cc(-c3ccc4c(c3)ncn4CCC(N)=O)n2)c1 [Example 129, hydrochloride] , what value of IC50 is listed for Syk tyrosine kinase (Homo sapiens, UniProt P43405)?
Data returned: 5 to 50 nM

Data request: For the record N#Cc1ccnc(Nc2cc(C3CC3)cc(-c3cncc(N4CCC(O)CC4)c3)n2)c1 [Example 116, hydrochloride] , what value of IC50 is listed for Syk tyrosine kinase (Homo sapiens, UniProt P43405)?
Data returned: 5 to 50 nM

Data request: For the record N#Cc1ccnc(Nc2cc(C3CC3)cc(-c3ccc(CN4CCNC(=O)C4)nc3)n2)c1 [Example 70, hydrochloride] , what value of IC50 is listed for Syk tyrosine kinase (Homo sapiens, UniProt P43405)?
Data returned: 50 to 500 nM

Data request: For the record CC(=O)NCCn1cnc2cc(-c3cc(C4CC4)cc(Nc4cc(C#N)ccn4)n3)ccc21 [Example 151, hydrochloride] , what value of IC50 is listed for Syk tyrosine kinase (Homo sapiens, UniProt P43405)?
Data returned: 5 to 50 nM

Data request: For the record N#Cc1ccnc(Nc2cc(C3CC3)cc(-c3cncc(N[C@H]4CCNC4)c3)n2)c1 [Example 89, hydrochloride] , what value of IC50 is listed for Syk tyrosine kinase (Homo sapiens, UniProt P43405)?
Data returned: < 5 nM

Data request: For the record Cc1ccc(-c2cc(C3CC3)cc(Nc3cc(C#N)ccn3)n2)cn1 [Example 54, hydrochloride] , what value of IC50 is listed for Syk tyrosine kinase (Homo sapiens, UniProt P43405)?
Data returned: 50 to 500 nM

Data request: For the record N#Cc1ccnc(Nc2cc(C3CC3)cc(-c3cncc(CN4CCNCC4)c3)n2)c1 [Example 81, hydrochloride] , what value of IC50 is listed for Syk tyrosine kinase (Homo sapiens, UniProt P43405)?
Data returned: 5 to 50 nM

Data request: For the record CC(C)(CO)Cn1cnc2cc(-c3cc(C4CC4)cc(Nc4cc(C#N)ccn4)n3)ccc21 [Example 119, hydrochloride] , what value of IC50 is listed for Syk tyrosine kinase (Homo sapiens, UniProt P43405)?
Data returned: 50 to 500 nM

Data request: For the record N#Cc1ccnc(Nc2cc(C3CC3)cc(-c3ccc(N4CC[C@@H](F)C4)nc3)n2)c1 [Example 51, hydrochloride] , what value of IC50 is listed for Syk tyrosine kinase (Homo sapiens, UniProt P43405)?
Data returned: 50 to 500 nM

Data request: For the record N#Cc1ccnc(Nc2cc(C3CC3)cc(-c3ccc(N[C@H]4CC[C@H](O)CC4)nc3)n2)c1 [Example 12, hydrochloride] , what value of IC50 is listed for Syk tyrosine kinase (Homo sapiens, UniProt P43405)?
Data returned: 50 to 500 nM

Data request: For the record N#Cc1ccnc(Nc2cc(C3CC3)cc(-c3ccc(N4CCC(CO)CC4)nc3)n2)c1 [Example 26, hydrochloride] , what value of IC50 is listed for Syk tyrosine kinase (Homo sapiens, UniProt P43405)?
Data returned: 5 to 50 nM

Data request: For the record N#Cc1ccnc(Nc2cc(C3CC3)cc(-c3cncc(OC4CCN(CC(N)=O)CC4)c3)n2)c1 [Example 103, hydrochloride] , what value of IC50 is listed for Syk tyrosine kinase (Homo sapiens, UniProt P43405)?
Data returned: 5 to 50 nM

Data request: For the record N#Cc1ccnc(Nc2cc(C3CC3)cc(-c3cncc(CN4CCNC(=O)C4)c3)n2)c1 [Example 73, hydrochloride] , what value of IC50 is listed for Syk tyrosine kinase (Homo sapiens, UniProt P43405)?
Data returned: 5 to 50 nM

Data request: For the record N#Cc1ccnc(Nc2cc(C3CC3)cc(-c3ccc(N4CCC(O)CC4)cc3)n2)c1 [Example 41, hydrochloride] , what value of IC50 is listed for Syk tyrosine kinase (Homo sapiens, UniProt P43405)?
Data returned: 50 to 500 nM

Data request: For the record N#Cc1ccnc(Nc2cc(C3CC3)cc(-c3ccc(N4CCC[C@@H](O)C4)nc3)n2)c1 [Example 34, hydrochloride] , what value of IC50 is listed for Syk tyrosine kinase (Homo sapiens, UniProt P43405)?
Data returned: 5 to 50 nM

Data request: For the record N#Cc1ccnc(Nc2cc(C3CC3)cc(-c3cncc(NC[C@H]4CCNC4)c3)n2)c1 [Example 97, hydrochloride] , what value of IC50 is listed for Syk tyrosine kinase (Homo sapiens, UniProt P43405)?
Data returned: < 5 nM

Data request: For the record N#Cc1ccnc(Nc2cc(C3CC3)cc(-c3ccc(N4CCC(F)CC4)nc3)n2)c1 [Example 30, hydrochloride] , what value of IC50 is listed for Syk tyrosine kinase (Homo sapiens, UniProt P43405)?
Data returned: 50 to 500 nM
